Parameter inhibition at 10 µM: see the listing below.
Target Under Test: hFASN enzyme (full length) (Homo sapiens, UniProt P49327)
Construct: 10 μL hFASN enzyme (full length, 300 ng, purified in house); made in house
Sequence (P49327 whole entry): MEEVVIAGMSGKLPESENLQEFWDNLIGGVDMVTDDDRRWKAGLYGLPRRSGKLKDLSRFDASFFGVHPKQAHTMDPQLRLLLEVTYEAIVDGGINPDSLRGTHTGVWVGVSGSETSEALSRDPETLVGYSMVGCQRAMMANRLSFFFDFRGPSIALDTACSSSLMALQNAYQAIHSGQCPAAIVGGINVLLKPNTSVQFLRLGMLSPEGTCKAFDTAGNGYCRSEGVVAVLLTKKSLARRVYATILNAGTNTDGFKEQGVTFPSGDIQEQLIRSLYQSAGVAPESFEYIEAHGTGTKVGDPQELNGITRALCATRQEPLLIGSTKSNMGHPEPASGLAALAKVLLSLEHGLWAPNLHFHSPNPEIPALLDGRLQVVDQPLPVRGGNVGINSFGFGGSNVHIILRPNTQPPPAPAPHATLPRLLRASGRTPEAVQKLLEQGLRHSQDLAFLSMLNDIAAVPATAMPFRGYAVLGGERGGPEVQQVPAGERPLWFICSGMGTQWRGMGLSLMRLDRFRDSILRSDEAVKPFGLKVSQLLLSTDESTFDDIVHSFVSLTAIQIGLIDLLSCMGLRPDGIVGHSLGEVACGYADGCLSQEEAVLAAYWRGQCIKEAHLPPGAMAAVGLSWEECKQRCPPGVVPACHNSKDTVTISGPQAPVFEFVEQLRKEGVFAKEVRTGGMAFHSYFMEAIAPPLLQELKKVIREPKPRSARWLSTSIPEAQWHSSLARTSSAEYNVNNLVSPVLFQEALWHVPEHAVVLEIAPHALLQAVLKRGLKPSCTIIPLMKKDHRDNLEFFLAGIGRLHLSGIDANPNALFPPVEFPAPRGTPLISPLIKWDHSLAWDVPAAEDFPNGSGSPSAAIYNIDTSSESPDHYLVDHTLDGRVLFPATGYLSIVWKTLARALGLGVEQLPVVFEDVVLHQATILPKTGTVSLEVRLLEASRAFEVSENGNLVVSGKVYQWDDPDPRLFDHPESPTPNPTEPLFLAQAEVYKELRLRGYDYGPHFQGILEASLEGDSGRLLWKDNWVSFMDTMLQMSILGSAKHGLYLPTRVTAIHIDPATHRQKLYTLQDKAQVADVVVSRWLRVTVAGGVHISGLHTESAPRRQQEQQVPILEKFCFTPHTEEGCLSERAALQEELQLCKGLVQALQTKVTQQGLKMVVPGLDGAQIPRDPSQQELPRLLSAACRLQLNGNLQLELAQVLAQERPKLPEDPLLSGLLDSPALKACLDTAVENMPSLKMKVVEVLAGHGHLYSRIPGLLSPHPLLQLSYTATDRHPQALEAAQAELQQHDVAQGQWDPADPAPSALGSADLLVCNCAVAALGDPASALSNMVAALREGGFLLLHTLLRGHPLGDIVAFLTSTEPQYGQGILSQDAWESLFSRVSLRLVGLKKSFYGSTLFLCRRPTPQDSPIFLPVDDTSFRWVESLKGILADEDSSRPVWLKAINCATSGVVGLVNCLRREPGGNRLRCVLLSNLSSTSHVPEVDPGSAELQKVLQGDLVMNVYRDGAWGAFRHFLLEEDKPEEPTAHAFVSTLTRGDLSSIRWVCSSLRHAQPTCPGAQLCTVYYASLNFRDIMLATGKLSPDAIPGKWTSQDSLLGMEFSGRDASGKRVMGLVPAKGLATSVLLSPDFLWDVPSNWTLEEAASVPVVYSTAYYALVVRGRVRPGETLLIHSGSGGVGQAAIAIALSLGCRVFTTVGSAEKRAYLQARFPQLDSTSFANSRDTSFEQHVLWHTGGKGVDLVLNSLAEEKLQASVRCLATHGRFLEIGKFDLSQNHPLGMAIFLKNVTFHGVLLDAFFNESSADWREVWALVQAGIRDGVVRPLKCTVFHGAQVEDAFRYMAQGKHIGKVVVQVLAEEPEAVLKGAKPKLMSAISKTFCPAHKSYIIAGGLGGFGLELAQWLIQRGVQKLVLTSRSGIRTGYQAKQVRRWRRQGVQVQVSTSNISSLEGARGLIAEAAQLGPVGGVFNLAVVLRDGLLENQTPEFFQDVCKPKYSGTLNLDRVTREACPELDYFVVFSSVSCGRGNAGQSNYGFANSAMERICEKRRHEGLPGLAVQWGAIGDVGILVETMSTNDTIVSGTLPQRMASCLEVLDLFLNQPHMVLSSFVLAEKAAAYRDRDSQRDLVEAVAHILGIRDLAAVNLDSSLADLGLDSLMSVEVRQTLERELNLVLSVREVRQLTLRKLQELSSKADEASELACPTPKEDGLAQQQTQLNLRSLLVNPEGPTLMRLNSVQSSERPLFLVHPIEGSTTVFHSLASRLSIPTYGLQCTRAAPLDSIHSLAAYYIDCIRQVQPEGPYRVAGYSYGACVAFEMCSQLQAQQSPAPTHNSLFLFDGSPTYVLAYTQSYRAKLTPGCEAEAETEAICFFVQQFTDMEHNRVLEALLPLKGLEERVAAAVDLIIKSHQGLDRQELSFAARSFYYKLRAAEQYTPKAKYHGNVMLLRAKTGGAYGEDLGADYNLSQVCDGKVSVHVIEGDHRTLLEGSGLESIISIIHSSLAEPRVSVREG
Test Method Notes: Fatty Acid Synthase (FASN) Inhibition Scintillation Proximity Assay
Format: biochemical
Test Parameters: read-out: FASN % Effect @1E−05M
Assay Metric: inhibition at 10 µM (%)

- Compound: "Cc1ccc(C(=O)N2CC(c3ccc(-c4cnn(C)c4)cc3)C2)cc1NC(=O)c1cnc(Cl)nc1"
  Value Units: "%"
  Experimental Value: 108
- Compound: "CCCN1CC(C(=O)Nc2cc(C(=O)N3CCC(c4ccc(-c5cnn(C)c5)cc4)CC3)ccc2C)C1"
  Value Units: "%"
  Experimental Value: 101
- Compound: "Cc1ccc(C(=O)N2CCC(c3ccc4nncn4c3)CC2)cc1NC(=O)c1ccc(NC(C)C)nc1"
  Value Units: "%"
  Experimental Value: 30
- Compound: "COCCNc1ccc(C(=O)N2CCC(c3ccc(-c4cnn(C)c4)cc3)CC2)cc1NC(=O)c1ccc(NC(C)C)nc1"
  Value Units: "%"
  Experimental Value: 99
- Compound: "Cc1ccc(C(=O)N2CCC(c3ccc(-c4cnn(C)c4)cc3)CC2)cc1NC(=O)[C@@H]1CCCN1C"
  Value Units: "%"
  Experimental Value: 100
- Compound: "Cc1ccc(C(=O)N2CCC(c3ccc(-c4cnn(C)c4)cc3)CC2)cc1NC(=O)c1cccs1"
  Value Units: "%"
  Experimental Value: 108
- Compound: "Cc1ccc(C(=O)N2CCC(c3ccc(-n4ccnc4)cc3)C(C)(C)C2)cc1NC(=O)c1ccc(NC(C)C)nc1 (stereo not drawn)"
  Value Units: "%"
  Experimental Value: 106
- Compound: "Cc1ccc(C(=O)N2CCC(c3ccc(-c4cnn(C)c4)cc3)CC2)cc1NC(=O)c1cncs1"
  Value Units: "%"
  Experimental Value: 103
- Compound: "Cc1ccc(C(=O)N2CCC(c3ccc(-c4cnn(C)c4)cc3)CC2)cc1NC(=O)C1CC1"
  Value Units: "%"
  Experimental Value: 103
- Compound: "Cc1ccc(C(=O)N2CCC(c3ccc4c(c3)C(C)N(C)C4=O)CC2)cc1NC(=O)c1ccc(NC(C)C)nc1 (stereo not drawn)"
  Value Units: "%"
  Experimental Value: 60
- Compound: "CC(C)Nc1ccc(C(=O)Nc2cc(C(=O)N3CCC(c4ccc(-c5cnn(C)c5)cc4)CC3)ccc2NC2CC2)cn1"
  Value Units: "%"
  Experimental Value: 98
- Compound: "Cc1ccc(C(=O)N2CC(c3ccc(-c4cnn(C)c4)cc3)C2)cc1NC(=O)c1ccc(N2CCN(C)CC2)nc1"
  Value Units: "%"
  Experimental Value: 110
- Compound: "Cc1ccc(C(=O)N2CCC(c3ccc(-c4cnn(C)c4)cc3)CC2)cc1NC(=O)c1ccccc1F"
  Value Units: "%"
  Experimental Value: 99
- Compound: "Cc1ccc(C(=O)N2CCC(c3ccc(-c4cnn(C)c4)cc3)CC2)cc1NC(=O)C1CCN(C2CCC(C)C2)C1 (stereo not drawn)"
  Value Units: "%"
  Experimental Value: 102
- Compound: "Cc1ccc(C(=O)N2CCC(c3ccc(-c4cnn(C)c4)cc3)CC2)cc1NC(=O)c1ccc(Cl)nc1"
  Value Units: "%"
  Experimental Value: 105
